Measured protein stability index of individual entries
B1: CCND2 (parent)
chain: YFKCVQKDIQPYMRRMVATWMLEV

- Variants of: B1
- Measurement notes: protein stability index of a GFP-peptide fusion (GPS, HEK-293T) (PSI 1-6); higher = more stable;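 further: lentivirally expressed fusions sorted by FACS into six bins by GFP to DsRed ratio, PSI derived from sequencing read proportions per bin multiplied by bin number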
- Conditions: c terminus: a fixed tail appended
Quick one: just the number, no unit, thanks!

INSERT INTO measurements (mutation_name, reported_result) VALUES
  ('I9S', 3.49);

Here is another variant to look at.
Would you kindly share the measured protein stability index for W20F ?
2.34
